- TARGET OR SYSTEM: cGMP-specific 3',5'-cyclic phosphodiesterase (Homo sapiens)
- TEST DESCRIPTION: Inhibition of human Phosphodiesterase 5 purified from MCF-7 cells
EXPERIMENTAL ENDPOINT: pIC50
Answers are plain numbers, as −log10 of the molar value.

Example entries begin here.
Cn1nc(-c2ccc(Cl)cc2)s/c1=N\c1cccc(O)c1 = 4.96
Cn1nc(-c2ccc(Cl)cc2)s/c1=N\c1cccc(C(=O)O)c1 = 5.14
Cc1cccc(C(=O)O)c1/N=c1\sc(-c2ccc(Cl)cc2)nn1C = 4.63

Incoming: Enter reported pIC50 observed with cGMP-specific 3',5'-cyclic phosphodiesterase (Homo sapiens) for Cn1nc(-c2ccc(Cl)cc2)s/c1=N\c1cccc(-c2noc(O)n2)c1
Outgoing: 5.12
